test description: Pharmacokinetics of Compound 1 in combination with MK-3475 in subjects with various cancers
Type: in vivo, human
condition summary: human, plasma, oral, 100 mg, Diagnosis NSCLC PD-L1 Low/NE, first dose, geometric mean
metric: Cmax (nM)
Numbers only; they are read as nM.

Query block: Determine from records and report Cmax for NS(=O)(=O)NCCNc1nonc1C(=NO)Nc1ccc(F)c(Br)c1 [Compound 1]
Result block: 857

---

test description: Dose-escalation study of Compound 1 pharmacokinetics in subjects with advanced malignancies (tablets of Formulations 1 and/or 3, fasted; food effect cohort)
Format: in vivo, human
condition summary: human, plasma, oral, 50 mg, 50 mg BID, steady state, geometric mean; read-out: AUC0-t
metric: AUC(0-t) (µM·h)
Numbers only; they are read as µM·h.

Query block: Determine from records and report AUC(0-t) for NS(=O)(=O)NCCNc1nonc1C(=NO)Nc1ccc(F)c(Br)c1
Result block: 2.58

---

test description: Pharmacokinetics of Compound 1 in combination with MK-3475 in subjects with various cancers
Assay type: in vivo, human
condition summary: human, plasma, oral, 100 mg BID, Diagnosis GU, steady state C1D8, geometric mean
metric: Cmax (nM)
Numbers only; they are read as nM.

Query block: Determine from records and report Cmax for NS(=O)(=O)NCCNc1nonc1C(=NO)Nc1ccc(F)c(Br)c1
Result block: 1030

---

test description: Pharmacokinetics of Compound 1 in combination with MK-3475 in subjects with various cancers
Assay type: in vivo, human
condition summary: human, plasma, oral, 300 mg, subjects with dose reduction before C4D1, 300 mg BID, C1D8, mean ± SD; read-out: AUC0-12 h (converted)
metric: AUC(0-t)

Query block: Determine from records and report AUC(0-t) for NS(=O)(=O)NCCNc1nonc1C(=NO)Nc1ccc(F)c(Br)c1 [Compound 1]
Result block: 14.6 µM·h

---

test description: Pharmacokinetics of Compound 1 in combination with MK-3475 in subjects with various cancers
Type: in vivo, human
condition summary: human, plasma, oral, 300 mg, by dose, 300 mg BID, steady state C1D8, mean ± SD; read-out: AUC0-12 h (converted)
metric: AUC(0-t)

Query block: Determine from records and report AUC(0-t) for NS(=O)(=O)NCCNc1nonc1C(=NO)Nc1ccc(F)c(Br)c1 [Compound 1]
Result block: 12.3 µM·h

---

test description: Pharmacokinetics of Compound 1 in combination with MK-3475 in subjects with various cancers
Type: in vivo, human
condition summary: by dose, 50 mg, first dose, mean ± SD
metric: Cmax (nM)
Numbers only; they are read as nM.

Query block: Determine from records and report Cmax for NS(=O)(=O)NCCNc1nonc1C(=NO)Nc1ccc(F)c(Br)c1 [Compound 1]
Result block: 537

---

test description: Pharmacokinetics of Compound 1 in combination with MK-3475 in subjects with various cancers
Format: in vivo, human
condition summary: human, plasma, oral, 300 mg, Cohort 7, 300 mg, first dose, mean ± SD
metric: Cmax (nM)
Numbers only; they are read as nM.

Query block: Determine from records and report Cmax for NS(=O)(=O)NCCNc1nonc1C(=NO)Nc1ccc(F)c(Br)c1
Result block: 2330

---

test description: Pharmacokinetics of Compound 1 in combination with MK-3475 in subjects with various cancers
Type: in vivo, human
condition summary: human, plasma, oral, 50 mg, subjects with dose reduction before C4D1, 50 mg BID, C1D8, geometric mean
metric: Cmax (nM)
Numbers only; they are read as nM.

Query block: Determine from records and report Cmax for NS(=O)(=O)NCCNc1nonc1C(=NO)Nc1ccc(F)c(Br)c1
Result block: 519

---

test description: Pharmacokinetics of Compound 1 in combination with MK-3475 in subjects with various cancers
Type: in vivo, human
condition summary: human, plasma, oral, 100 mg, Diagnosis GU, first dose, geometric mean; read-out: AUC0-t
Experimental: The subjects were not limited to a specific cancers and study include subjects with various cancers. […] One treatment cycle consisted of 21 days. […] The RP2D was selected from the evaluated safety expansions. […] Pharmacokinetic samples were obtained at the visits of Cycle 1 Day 1, Cycle 1 Day 8 and Cycle 2 Day 1. […] The exact date and time of the PK blood draws were recorded in the eCRF along with the date and time of the last dose of study drug and details of the last meal preceding the blood draw. […]
metric: AUC(0-t)
Could you give the number and then its unit, please?

Query block: Determine from records and report AUC(0-t) for NS(=O)(=O)NCCNc1nonc1C(=NO)Nc1ccc(F)c(Br)c1
Result block: 2.71 µM·h

---

test description: Pharmacokinetics of Compound 1 in combination with MK-3475 in subjects with various cancers
Format: in vivo, human
condition summary: human, plasma, oral, 100 mg BID, Diagnosis NSCLC PD-L1 Low/NE, steady state C1D8, mean ± SD; read-out: AUC0-12 h (converted)
metric: AUC(0-t)

Query block: Determine from records and report AUC(0-t) for NS(=O)(=O)NCCNc1nonc1C(=NO)Nc1ccc(F)c(Br)c1
Result block: 4.35 µM·h

---

test description: Pharmacokinetics of Compound 1 in combination with MK-3475 in subjects with various cancers
Format: in vivo, human
condition summary: by dose, 50 mg BID, steady state C1D8, mean ± SD
metric: Cmax
Could you give the number and then its unit, please?

Query block: Determine from records and report Cmax for NS(=O)(=O)NCCNc1nonc1C(=NO)Nc1ccc(F)c(Br)c1
Result block: 502 nM

---

test description: Dose-escalation study of Compound 1 pharmacokinetics in subjects with advanced malignancies (tablets of Formulations 1 and/or 3, fasted; food effect cohort)
Assay type: in vivo, human
condition summary: human, plasma, oral, 400 mg, 400 mg BID, steady state, geometric mean; read-out: AUC0-t
metric: AUC(0-t) (µM·h)
Numbers only; they are read as µM·h.

Query block: Determine from records and report AUC(0-t) for NS(=O)(=O)NCCNc1nonc1C(=NO)Nc1ccc(F)c(Br)c1
Result block: 15

---

test description: Pharmacokinetics of Compound 1 in combination with MK-3475 in subjects with various cancers
Type: in vivo, human
condition summary: human, plasma, oral, 100 mg, Diagnosis MEL, first dose, mean ± SD; read-out: AUC0-t
metric: AUC(0-t) (µM·h)
Numbers only; they are read as µM·h.

Query block: Determine from records and report AUC(0-t) for NS(=O)(=O)NCCNc1nonc1C(=NO)Nc1ccc(F)c(Br)c1 [Compound 1]
Result block: 2.48

---

test description: Pharmacokinetics of Compound 1 in combination with MK-3475 in subjects with various cancers
Type: in vivo, human
condition summary: human, plasma, oral, 100 mg BID, Diagnosis NSCLC PD-L1 High, steady state C1D8, mean ± SD; read-out: AUC0-12 h (converted)
metric: AUC(0-t) (µM·h)
Numbers only; they are read as µM·h.

Query block: Determine from records and report AUC(0-t) for NS(=O)(=O)NCCNc1nonc1C(=NO)Nc1ccc(F)c(Br)c1
Result block: 4.43

---

test description: Pharmacokinetics of Compound 1 in combination with MK-3475 in subjects with various cancers
Format: in vivo, human
condition summary: human, plasma, oral, 100 mg, Diagnosis TNBC, first dose, geometric mean
metric: Cmax (nM)
Numbers only; they are read as nM.

Query block: Determine from records and report Cmax for NS(=O)(=O)NCCNc1nonc1C(=NO)Nc1ccc(F)c(Br)c1 [Compound 1]
Result block: 898

---

test description: Pharmacokinetics of Compound 1 in combination with MK-3475 in subjects with various cancers
Type: in vivo, human
condition summary: human, plasma, oral, 300 mg, subjects with dose reduction before C4D1, 300 mg BID, C1D8, geometric mean
metric: Cmax (nM)
Numbers only; they are read as nM.

Query block: Determine from records and report Cmax for NS(=O)(=O)NCCNc1nonc1C(=NO)Nc1ccc(F)c(Br)c1
Result block: 3000

---

test description: Pharmacokinetics of Compound 1 in combination with MK-3475 in subjects with various cancers
Format: in vivo, human
condition summary: human, plasma, oral, 50 mg, by dose, 50 mg BID, steady state C1D8, mean ± SD; read-out: AUC0-12 h (converted)
metric: AUC(0-t)

Query block: Determine from records and report AUC(0-t) for NS(=O)(=O)NCCNc1nonc1C(=NO)Nc1ccc(F)c(Br)c1 [Compound 1]
Result block: 2.05 µM·h

---

test description: Dose-escalation study of Compound 1 pharmacokinetics in subjects with advanced malignancies (tablets of Formulations 1 and/or 3, fasted; food effect cohort)
Assay type: in vivo, human
condition summary: human, plasma, oral, 600 mg, 600 mg BID, steady state, geometric mean; read-out: AUC0-τ
metric: AUC

Query block: Determine from records and report AUC for NS(=O)(=O)NCCNc1nonc1C(=NO)Nc1ccc(F)c(Br)c1
Result block: 21.6 µM·h

---

test description: Pharmacokinetics of Compound 1 in combination with MK-3475 in subjects with various cancers
Assay type: in vivo, human
condition summary: human, plasma, oral, 50 mg, Cohort 4 (MEL), 50 mg, first dose, geometric mean; read-out: AUC0-t
Procedure: The subjects were not limited to a specific cancers and study include subjects with various cancers. […] One treatment cycle consisted of 21 days. […] The RP2D was selected from the evaluated safety expansions. […] Pharmacokinetic samples were obtained at the visits of Cycle 1 Day 1, Cycle 1 Day 8 and Cycle 2 Day 1. […] The exact date and time of the PK blood draws were recorded in the eCRF along with the date and time of the last dose of study drug and details of the last meal preceding the blood draw. […]
metric: AUC(0-t) (µM·h)
Numbers only; they are read as µM·h.

Query block: Determine from records and report AUC(0-t) for NS(=O)(=O)NCCNc1nonc1C(=NO)Nc1ccc(F)c(Br)c1 [Compound 1]
Result block: 1.2
